Measured TGI values are reported for all entries that follow.
tested on: NCI-H460 lung; assay: NCI tumour cell line growth inhibition, 48 h

Take a look at these entries with their results.
| COMPOUND | TGI |
| --- | --- |
| CCC(=O)/C=C/c1ccccc1 | > 100 µM |
| COc1cc2c(cc1OC)C1[C@@H](c3ccccc3)OCN1CC2 (stereo partly specified) | > 100 µM |
| O=C(Cc1nc2ccccc2o1)C(=O)Nc1ccccc1C(F)(F)F | > 100 µM |
| Nc1nc(-c2ccco2)cc(-c2ccco2)n1 | > 100 µM |
| CNc1ccccc1-c1nc2ccccc2c(=O)o1 | > 100 µM |

# input Please look up its TGI: CCOC(=O)C1C(O)CC2c3ccccc3-c3ccccc3C21 (stereo unspecified)
# output > 100 µM

# input Which TGI is listed for CCCCCCCCOCC(CO)OCCCCCCCC (stereo unspecified) ?
# output 30 µM

# input Item under review: C=C1C(=O)O[C@H]2[C@H]1CC/C(COC(=O)/C=C/C(=O)NCc1ccc(Cn3c(=O)sn(-c4ccccc4)c3=O)cc1)=C\CC[C@@]1(C)O[C@@H]21 . Reported TGI?
# output 22.2 µM

# input Fill in the blank: the reported TGI of O=C(N[C@@H](c1ccccc1)[C@@H](O)C(=O)OCc1ccc2c(c1)OCO2)c1ccccc1 is ____.
# output > 100 µM

# input I am curious: what TGI value has been reported for Cn1ncc(NC(=O)c2nc(-c3c(F)cccc3F)sc2N)c1N1CC[C@@H](N)[C@H](F)CC1 ?
# output 21.2 µM

# input Request the reported TGI associated with O=C1c2[nH]c3ccccc3c2CCN2CCCCC12 (stereo unspecified)
# output > 100 µM
